target: Bromodomain testis-specific protein [21-137] (Homo sapiens, UniProt Q58F21); construct: 21-137; experiment: AlphaScreen BRD Binding Assay; conditions: pH 7.5; 25 °C
pIC50: −log10 of the molar value.
reported property: pIC50

Study these solved cases before continuing.
COc1cc2c(cc1-c1c(C)noc1C)ncc1c2n([C@H](C)c2ccccn2)c(=O)n1CC(=O)NCCNC(=O)C[C@@H]1N=C(c2ccc(Cl)cc2)c2c(sc(C)c2C)-n2c(C)nnc21 : 6.83
COc1cc2c(cc1-c1c(C)noc1C)ncc1c2n([C@H](C)c2ccccn2)c(=O)n1CC(=O)NCCOCCNC(=O)C[C@@H]1N=C(c2ccc(Cl)cc2)c2c(sc(C)c2C)-n2c(C)nnc21 : 7.92
COc1cc2c(cc1-c1c(C)noc1C)ncc1c2n([C@H](C)c2ccccn2)c(=O)n1CC(=O)NCCOCCOCCNC(=O)Cn1c(=O)n([C@@H](C)c2ccccn2)c2c3cc(OC)c(-c4c(C)noc4C)cc3ncc21 : 6.91
COc1cc2c(cc1-c1c(C)noc1C)ncc1c2n([C@H](C)c2ccccn2)c(=O)n1CC(=O)NCCOCCOCCNC(=O)C[C@@H]1N=C(c2ccc(Cl)cc2)c2c(sc(C)c2C)-n2c(C)nnc21 : 8.00

1: COc1cc2c(cc1-c1c(C)noc1C)ncc1c2n([C@H](C)c2ccccn2)c(=O)n1CC(=O)NCCOCCOCCOCCNC(=O)Cn1c(=O)n([C@@H](C)c2ccccn2)c2c3cc(OC)c(-c4c(C)noc4C)cc3ncc21
2: COc1cc2c(cc1-c1c(C)noc1C)ncc1c2n([C@H](C)c2ccccn2)c(=O)n1CC(=O)NCCOCCOCCOCCOCCOCCOCCOCCNC(=O)Cn1c(=O)n([C@@H](C)c2ccccn2)c2c3cc(OC)c(-c4c(C)noc4C)cc3ncc21
Problem: Could you please tell me which of these two has the higher pIC50: 1 or 2 ? The response must carry the label of the picked entry.
Result: 2

###

target: Bromodomain testis-specific protein [21-137] (Homo sapiens, UniProt Q58F21); construct: 21-137; assay: AlphaScreen BRD Binding Assay; details: pH 7.5; 25 °C
reported property: IC50 (nM)

Study these solved cases before continuing.
COc1cc2c(cc1-c1c(C)noc1C)ncc1c2n([C@H](C)c2ccccn2)c(=O)n1CC(=O)NCCOCCOCCOCCOCCNC(=O)Cn1c(=O)n([C@@H](C)c2ccccn2)c2c3cc(OC)c(-c4c(C)noc4C)cc3ncc21 : 60.2
COc1cc2c(cc1-c1c(C)noc1C)ncc1c2n([C@H](C)c2ccccn2)c(=O)n1CC(=O)NCCOCCOCCOCCOCCNC(=O)C[C@@H]1N=C(c2ccc(Cl)cc2)c2c(sc(C)c2C)-n2c(C)nnc21 : 6.2

P: COc1cc2c(cc1-c1c(C)noc1C)ncc1c2n([C@H](C)c2ccccn2)c(=O)n1CC(=O)NCCOCCOCCOCCOCCOCCOCCOCCNC(=O)C[C@@H]1N=C(c2ccc(Cl)cc2)c2c(sc(C)c2C)-n2c(C)nnc21
Q: COC(=O)C[C@@H]1N=C(c2ccc(Cl)cc2)c2c(sc(C(=O)NCCOCCOCCOCCOCCOCCOCCOCCNC(=O)C[C@@H]3N=C(c4ccc(Cl)cc4)c4c(sc(C)c4C)-n4c(C)nnc43)c2C)-n2c(C)nnc21
Problem: Between the entries labeled P and Q , whose measured IC50 is lower? The response must carry the label of the picked entry.
Result: Q

Cited source: BindingDB's records for doi:10.1038/nchembio.2209
